Data credit: patent US11912794B2

- target.entity: human plasma Kallikrein (Homo sapiens)
- Construct: purchased Stratech, UK
- Sequence (P03952 20-638): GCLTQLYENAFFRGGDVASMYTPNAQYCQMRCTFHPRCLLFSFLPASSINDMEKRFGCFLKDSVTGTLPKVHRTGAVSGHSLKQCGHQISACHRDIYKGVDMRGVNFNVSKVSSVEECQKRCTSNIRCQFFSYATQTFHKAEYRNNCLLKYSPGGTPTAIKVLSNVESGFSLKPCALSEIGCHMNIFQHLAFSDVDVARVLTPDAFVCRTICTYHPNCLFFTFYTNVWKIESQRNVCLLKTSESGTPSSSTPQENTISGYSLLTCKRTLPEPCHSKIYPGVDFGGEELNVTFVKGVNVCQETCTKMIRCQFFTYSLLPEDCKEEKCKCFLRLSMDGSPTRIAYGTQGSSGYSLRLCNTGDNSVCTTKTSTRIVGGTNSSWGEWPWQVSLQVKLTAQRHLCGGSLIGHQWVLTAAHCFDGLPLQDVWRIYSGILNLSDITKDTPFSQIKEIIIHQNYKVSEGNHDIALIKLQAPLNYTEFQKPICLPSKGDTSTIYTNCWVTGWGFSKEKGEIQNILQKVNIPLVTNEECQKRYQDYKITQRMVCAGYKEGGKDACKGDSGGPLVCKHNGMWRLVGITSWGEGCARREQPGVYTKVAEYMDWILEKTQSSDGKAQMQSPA
- experiment: Functional enzyme inhibition assay, fluorogenic substrate Z-PheArg-AMC
- Type: biochemical
- details: Ki (nM) (human kallikrein), Ac-06-34-18(TMB)-NH2 series
Numbered stars: 1 amine (or outer) side, 2 acyl side, 3 side chain; on linkers, the order of the positions; unused ones are H or OH. Bridge positions count the residues as written; N and C are the ends. Square brackets hold non-standard residues; d marks the D form. Peptide text beside a SMILES is read from it. 2Nal = N[C@@H](Cc1ccc2ccccc2c1)C(=O)O; TBMB = c1c(C[*:1])cc(C[*:3])cc1C[*:2]; Hyp = O=C(O)[C@@H]1C[C@@H](O)CN1
readout.kind: Ki

Asked: Give reported Ki value for CC(=O)N[C@H]1CSCc2cc3cc(c2)CSC[C@H](NC(=O)[C@H](CCCNC(=N)N)NC(=O)[C@H](C)NC(=O)[C@@H]2CCCN2C(=O)[C@H](Cc2ccc4ccccc4c2)NC(=O)[C@H](CO)NC1=O)C(=O)N[C@@H](CC(C)C)C(=O)N[C@@H](Cc1c[nH]cn1)C(=O)N[C@@H](CCC(N)=O)C(=O)N[C@@H](CC(=O)O)C(=O)N[C@@H](CC(C)C)C(=O)N[C@H](C(N)=O)CSC3 [Ac-(06-34-18) 2NAL2] (Ac-CS[2Nal]PARCLHQDLC-NH2; linker 1-7-13 via TBMB)
Given back: 0.5 nM

Asked: Give reported Ki value for CC(=O)N[C@H]1CSCc2cc3cc(c2)CSC[C@H](NC(=O)[C@H](CCCNC(=N)N)NC(=O)[C@H](C)NC(=O)[C@@H]2C[C@@H](O)CN2C(=O)[C@H](Cc2c[nH]c4ccccc24)NC(=O)[C@H](CO)NC1=O)C(=O)N[C@@H](CC(C)C)C(=O)N[C@@H](Cc1c[nH]cn1)C(=O)N[C@@H](CCC(N)=O)C(=O)N[C@@H](CC(=O)O)C(=O)N[C@@H](CC(C)C)C(=O)N[C@H](C(N)=O)CSC3 [Ac-(06-34-18) HyP3] (Ac-CSW[Hyp]ARCLHQDLC-NH2; linker 1-7-13 via TBMB)
Given back: 0.41 nM

* * *

- target.entity: human plasma Kallikrein (Homo sapiens)
- Construct: purchased Stratech, UK
- experiment: Functional enzyme inhibition assay, fluorogenic substrate Z-PheArg-AMC
- Format: biochemical
- details: Ki (nM) (human kallikrein), Ac-06-34-18(TMB)-NH2 series
Numbered stars: 1 amine (or outer) side, 2 acyl side, 3 side chain; on linkers, the order of the positions; unused ones are H or OH. Bridge positions count the residues as written; N and C are the ends. Square brackets hold non-standard residues; d marks the D form. Peptide text beside a SMILES is read from it. Phe(4-guanidino) = N=C(N)Nc1ccc(C[C@H](N)C(=O)O)cc1; Pro(trans-4-Ph) = O=C(O)[C@@H]1C[C@@H](c2ccccc2)CN1; 1Nal = N[C@@H](Cc1cccc2ccccc12)C(=O)O; TBMB = c1c(C[*:1])cc(C[*:3])cc1C[*:2]; NMeR = CN[C@@H](CCCNC(=N)N)C(=O)O; 4Pal = N[C@@H](Cc1ccncc1)C(=O)O; Tic = O=C(O)[C@@H]1Cc2ccccc2CN1
# note: exactly 4 nM is not below, so it is Condition not met; use Condition met for Ki strictly under it

Asked: For CC(=O)N[C@H]1CSCc2cc3cc(c2)CSC[C@H](NC(=O)[C@H](CCCNC(=N)N)NC(=O)[C@H](Cc2ccc(O)cc2)NC(=O)[C@@H]2CCCN2C(=O)[C@H](Cc2ccncc2)NC(=O)[C@H](CO)NC1=O)C(=O)N[C@@H](CC(C)C)C(=O)N[C@@H](Cc1c[nH]cn1)C(=O)N[C@@H](CCC(N)=O)C(=O)N[C@@H](CC(=O)O)C(=O)N[C@@H](CC(C)C)C(=O)N[C@H](C(N)=O)CSC3 [Ac-(06-34-18) 4Pal2 Tyr4] (Ac-CS[4Pal]PYRCLHQDLC-NH2; linker 1-7-13 via TBMB) , is the recorded Ki below the cut-off of 4 nM?
Given back: Condition met

Asked: For CC(=O)N[C@H]1CSCc2cc3cc(c2)CSC[C@H](NC(=O)[C@H](CCCNC(=N)N)NC(=O)[C@H](Cc2cccc4ccccc24)NC(=O)[C@@H]2CCCN2C(=O)[C@H](Cc2ccccc2)NC(=O)[C@H](CO)NC1=O)C(=O)N[C@@H](CC(C)C)C(=O)N[C@@H](Cc1c[nH]cn1)C(=O)N[C@@H](CCC(N)=O)C(=O)N[C@@H](CC(=O)O)C(=O)N[C@@H](CC(C)C)C(=O)N[C@H](C(N)=O)CSC3 [Ac-(06-34-18) Phe2 1Nal4] (Ac-CSFP[1Nal]RCLHQDLC-NH2; linker 1-7-13 via TBMB) , is the recorded Ki below the cut-off of 4 nM?
Given back: Condition not met

Asked: For CC(=O)N[C@H]1CSCc2cc3cc(c2)CSC[C@H](NC(=O)[C@H](CCCNC(=N)N)N(C)C(=O)[C@H](Cc2ccc(O)cc2)NC(=O)[C@@H]2CCCN2C(=O)[C@H](Cc2ccccc2)NC(=O)[C@H](CO)NC1=O)C(=O)N[C@@H](CC(C)C)C(=O)N[C@@H](Cc1c[nH]cn1)C(=O)N[C@@H](CCC(N)=O)C(=O)N[C@@H](CC(=O)O)C(=O)N[C@@H](CC(C)C)C(=O)N[C@H](C(N)=O)CSC3 [Ac-(06-34-18) Phe2 Tyr4 NMeArg5] (Ac-CSFPY[NMeR]CLHQDLC-NH2; linker 1-7-13 via TBMB) , is the recorded Ki below the cut-off of 4 nM?
Given back: Condition met

Asked: For CC(=O)N[C@H]1CSCc2cc3cc(c2)CSC[C@H](NC(=O)[C@H](CCCNC(=N)N)NC(=O)[C@H](C)NC(=O)[C@@H]2C[C@@H](c4ccccc4)CN2C(=O)[C@H](Cc2c[nH]c4ccccc24)NC(=O)[C@H](CO)NC1=O)C(=O)N[C@@H](CC(C)C)C(=O)N[C@@H](Cc1c[nH]cn1)C(=O)N[C@@H](CCC(N)=O)C(=O)N[C@@H](CC(=O)O)C(=O)N[C@@H](CC(C)C)C(=O)N[C@H](C(N)=O)CSC3 [Ac-(06-34-18) 4Phenyl Pro3] (Ac-CSW[Pro(trans-4-Ph)]ARCLHQDLC-NH2; linker 1-7-13 via TBMB) , is the recorded Ki below the cut-off of 4 nM?
Given back: Condition met

Asked: For CC(=O)N[C@H]1CSCc2cc3cc(c2)CSC[C@H](NC(=O)[C@H](CCCNC(=N)N)NC(=O)[C@H](C)NC(=O)[C@@H]2Cc4ccccc4CN2C(=O)[C@H](Cc2c[nH]c4ccccc24)NC(=O)[C@H](CO)NC1=O)C(=O)N[C@@H](CC(C)C)C(=O)N[C@@H](Cc1c[nH]cn1)C(=O)N[C@@H](CCC(N)=O)C(=O)N[C@@H](CC(=O)O)C(=O)N[C@@H](CC(C)C)C(=O)N[C@H](C(N)=O)CSC3 [Ac-(06-34-18) Tic3] (Ac-CSW[Tic]ARCLHQDLC-NH2; linker 1-7-13 via TBMB) , is the recorded Ki below the cut-off of 4 nM?
Given back: Condition not met

Asked: For CC(=O)N[C@H]1CSCc2cc3cc(c2)CSC[C@H](NC(=O)[C@H](Cc2ccc(NC(=N)N)cc2)NC(=O)[C@H](Cc2ccc(O)cc2)NC(=O)[C@@H]2CCCN2C(=O)[C@H](Cc2ccccc2)NC(=O)[C@H](CO)NC1=O)C(=O)N[C@@H](CC(C)C)C(=O)N[C@@H](Cc1c[nH]cn1)C(=O)N[C@@H](CCC(N)=O)C(=O)N[C@@H](CC(=O)O)C(=O)N[C@@H](CC(C)C)C(=O)N[C@H](C(N)=O)CSC3 [Ac-(06-34-18) Phe2 Tyr4 4GuanPhe5] (Ac-CSFPY[Phe(4-guanidino)]CLHQDLC-NH2; linker 1-7-13 via TBMB) , is the recorded Ki below the cut-off of 4 nM?
Given back: Condition met

Asked: For CC(=O)N[C@H]1CSCc2cc3cc(c2)CSC[C@H](NC(=O)[C@H](CCCNC(=N)N)NC(=O)[C@H](Cc2ccc(O)cc2)NC(=O)[C@@H]2CCCN2C(=O)[C@H](Cc2ccccc2)NC(=O)[C@H](CO)NC1=O)C(=O)N[C@@H](CC(C)C)C(=O)N[C@@H](Cc1c[nH]cn1)C(=O)N[C@@H](CCC(N)=O)C(=O)N[C@@H](CC(=O)O)C(=O)N[C@@H](CC(C)C)C(=O)N[C@H](C(N)=O)CSC3 [Ac-(06-34-18) FPYR] (Ac-CSFPYRCLHQDLC-NH2; linker 1-7-13 via TBMB) , is the recorded Ki below the cut-off of 4 nM?
Given back: Condition met
